# SYSTEM UNDER TEST: T1, CD70 on cells (CHO-CD70, JVM-3, U266, Raji, THP-1, T cells) (human, UniProt P32970 1-193)
# T1 construct: whole, on cells; also called cell-surface CD70
# T1 sequence (looked up): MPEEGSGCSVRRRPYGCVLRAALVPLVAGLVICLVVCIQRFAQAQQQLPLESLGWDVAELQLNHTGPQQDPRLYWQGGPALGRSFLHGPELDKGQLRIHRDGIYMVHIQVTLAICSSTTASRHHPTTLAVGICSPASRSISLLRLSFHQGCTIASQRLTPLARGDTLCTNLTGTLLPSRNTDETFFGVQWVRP
# PROTOCOL DETAILS: on JVM-3 cells
METRIC NAME: cell binding

INSERT INTO assay_data (binder, metric_name, reported_measurement) VALUES
  ('4G7 (antibody, V domains shown, alloy mouse hybridoma antibody; also called 4G7E8) VH: QVQLVESGGGVVQPGRSLRLSCAASGFTFSSYGLHWVRQAPGKGLDWVAVIWYDGSNKYYVDSVKGRFTISRDNSMNTLFLQMNSLRAEDTAVYYCARDEAAAAGAFDIWGQGTMVTVSS VL: DIQLTQSPSFLSASVGDRVTITCRASQGISSYLAWYQQKPGKAPKLLIYAASTLQSGVPSRFSGSGSGTEFTLTISSLQPEDFATYYCQQLNYYSITFGQGTRLEIK', 'cell binding', 322000),
  ('9A1 (antibody, V domains shown, alloy mouse hybridoma antibody; also called 9A1H6) VH: QVQLVQSGAEVKKPGASVKVSCKASGYSFTGYYMHWVRQAPGQGLEWMGWINPKSGGTSYAQQFQGRVTMTRDTSMSTVYMELTRLRADDTAVYYCARLYYSGWYGDYWGQGTLVTVSS VL: DIQMTQSPSSLSASVGDRVTITCQASQDINNYLNWYQQKPGKVPNLLIYDASNLETGVPSRFSGSGSGTDFTFTISSLQPEDIATYYCQQYNNPPITFGQGTRLEIK', 'cell binding', 401000),
  ('9A11 (antibody, V domains shown, alloy mouse hybridoma antibody; also called 9A11E8) VH: QVQLVESGGGVVQPGRSLRLSCAASGFTFSNYGMYWVRQAPGKGLEWVAVIWYDGSKKYYGDSVKGRFTISRDNSKNTLYLQMNSLRAEDTAVYYCARDEDTVMASFDYWGQGTLVTVSS VL: DIQLTQSPSFLSASVGDRVTITCRASQDISIYLAWYQQKPGKAPQLLIYAASTLQSGVPSRFSGSGSGTEFTLTISSLQPEDFATYSCQQLNSYPITFGGGTKVEIK', 'cell binding', 410000);
